Biological target: UniProtKB P15538
Sequence (P15538 25-503): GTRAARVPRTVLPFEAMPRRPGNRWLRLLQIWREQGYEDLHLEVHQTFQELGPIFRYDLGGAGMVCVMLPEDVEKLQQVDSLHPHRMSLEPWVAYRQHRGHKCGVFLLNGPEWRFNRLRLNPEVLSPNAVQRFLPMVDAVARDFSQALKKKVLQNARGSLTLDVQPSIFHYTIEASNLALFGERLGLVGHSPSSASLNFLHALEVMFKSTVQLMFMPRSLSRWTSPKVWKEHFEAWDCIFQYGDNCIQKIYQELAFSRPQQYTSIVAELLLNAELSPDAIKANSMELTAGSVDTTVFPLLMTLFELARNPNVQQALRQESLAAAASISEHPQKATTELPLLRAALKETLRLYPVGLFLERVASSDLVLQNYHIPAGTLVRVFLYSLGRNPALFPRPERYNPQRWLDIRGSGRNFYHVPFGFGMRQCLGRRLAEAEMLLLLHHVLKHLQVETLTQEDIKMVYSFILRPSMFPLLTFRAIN
Assay: G-402 cellular enzyme assay, human CYP11B1 (cortisol release, HTRF)
Conditions: G-402 cells expressing human CYP11B1; 1 μM Deoxycortisol
assay.endpoint: EC50 (nM)

compound: CCOCCN(Cc1cncc(-c2ccc3c(c2)CCC(=O)N3C)c1)S(=O)(=O)CC [Example 185]
assay.endpoint: EC50
value.unit: nM
test.value: 9290

P = CCOC(=O)N1CC[C@H](Oc2cncc(-c3ccc4c(c3)CCC(=O)N4C)c2)C1 [Example 256]
Q = CN1C(=O)CCc2cc(-c3cncc(CN4CCC[C@H]4CO)c3)ccc21 [Example 7]
INPUT: # returns the entry with the larger EC50; inputs P and Q Response format: the label of the selected entry.
OUTPUT: Q
(Q: 570 nM, P: 158 nM)

P = Cc1nnc(C(=O)NCc2cncc(-c3ccc4c(c3)CCC(=O)N4C)c2)o1 [Example 80]
Q = CCS(=O)(=O)NCc1cncc(-c2cc(Cl)c3c(c2)CCC(=O)N3C)c1 [Example 209]
R = CC(NC(=O)c1ncccc1Cl)c1cncc(-c2ccc3c(c2)CCC(=O)N3C)c1 (single isomer, unassigned) [Example 230]
S = CCC(=O)N1CC[C@H](Oc2cncc(-c3ccc4c(c3)CCC(=O)N4C)c2)C1 [Example 90]
INPUT: hey, can you rank those compounds up there by EC50? biggest number first please I would appreciate it if you listed the labels in the requested order.
OUTPUT: Q, S, P, R
(Q: 7540 nM, S: 1500 nM, P: 493 nM, R: 7 nM)

I = Cc1noc(C)c1C(=O)N(C)Cc1cncc(-c2ccc3c(c2)CCC(=O)N3C)c1 [Example 188]
II = CCS(=O)(=O)N1CC[C@@H](Oc2cncc(-c3ccc4c(c3)CCC(=O)N4C)c2)C1 [Example 169]
III = CN1C(=O)CCc2cc(-c3cncc(OCCNC(=O)c4ncccc4Cl)c3)ccc21 [Example 233]
INPUT: Ordering criterion: EC50; begin with the maximum. Record the ranking as a list of labels in the requested order.
OUTPUT: II, I, III

----------
Target: UniProtKB P15538
Assay: G-402 cellular enzyme assay, human CYP11B1 (cortisol release, HTRF)
Details: G-402 cells expressing human CYP11B1; 1 μM Deoxycortisol
assay.endpoint: EC50 (µM)

compound: O=C1CCc2cc(-c3cncc(CNC(=O)c4ncccc4Cl)c3)ccc2N1
system.name: UniProtKB P15538
EC50 (µM): 6.65

A = CCS(=O)(=O)NC(c1cncc(-c2ccc3c(c2)CCC(=O)N3C)c1)C1CC1 (racemic)
B = CCS(=O)(=O)NCCOc1cncc(-c2ccc3c(c2)CCC(=O)N3C)c1
C = Cc1c(-c2ccc3c(c2)CCC(=O)N3C)cncc1C(C)NC(=O)c1ncccc1Cl (single isomer, unassigned)
D = Cc1c(CNC(=O)c2ncccc2Cl)cncc1-c1ccc2c(c1)CCC(=O)N2C
INPUT: hey, can you rank those compounds up there by EC50? biggest number first please Give the labels in the order requested.
OUTPUT: A, C, D, B
(A: 8.46 µM, C: 0.251 µM, D: 0.173 µM, B: 0.09 µM)

----------
Target: human CYP11B2 (Homo sapiens, UniProt P19099)
Sequence (P19099 25-503): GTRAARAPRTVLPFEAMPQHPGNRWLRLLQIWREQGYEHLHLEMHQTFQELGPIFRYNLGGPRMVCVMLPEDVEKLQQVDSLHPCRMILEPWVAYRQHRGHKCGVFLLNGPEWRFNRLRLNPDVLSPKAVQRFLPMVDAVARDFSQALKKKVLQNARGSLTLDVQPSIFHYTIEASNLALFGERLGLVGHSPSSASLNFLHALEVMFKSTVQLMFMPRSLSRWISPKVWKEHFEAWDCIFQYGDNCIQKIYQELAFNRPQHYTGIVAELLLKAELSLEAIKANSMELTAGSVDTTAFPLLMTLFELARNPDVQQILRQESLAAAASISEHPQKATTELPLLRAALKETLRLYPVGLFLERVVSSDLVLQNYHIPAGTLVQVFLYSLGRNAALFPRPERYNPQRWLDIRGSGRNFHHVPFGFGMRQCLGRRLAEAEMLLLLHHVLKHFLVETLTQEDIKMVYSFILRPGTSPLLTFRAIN
Test: G-402 cellular enzyme assay, human CYP11B2 (aldosterone release, HTRF)
Settings: G-402 cells expressing human CYP11B2; 1 μM Deoxycorticosterone
Excerpt: Herein we identified the use of the G-402 cell line as a host cell to ectopically express (transiently or stably) enzymes of the CYP11 family. […] Importantly the identified cell line G-402 expresses co-factors (adrenodoxin and adrenodoxin reductase) important for the activity of the CYP11 family and no relevant enzyme activity of the CYP11 family (in comparison to H295R cells) was detected in these cells. […]
Where a name gives a salt, the structure may show the parent alone.
assay.endpoint: EC50 (nM)

compound: CCC(=O)NCCOc1cncc(-c2ccc3c(c2)CCC(=O)N3C)c1 [Example 43]
EC50 (nM): 40
--
compound: Cc1c(-c2cc3c(cc2F)N(C)C(=O)CC3)cncc1C(C)N (single isomer, unassigned) [Example 253, hydrochloride]
EC50 (nM): 193
--
compound: CN1C(=O)CCc2cc(-c3cncc(CNC(=O)c4ncccc4Cl)c3)c(F)cc21 [Example 131]
EC50 (nM): 3
--
compound: CN1C(=O)CCc2cc(-c3cncc(CNC(=O)c4cnc(C(F)(F)F)cn4)c3)ccc21 [Example 126]
EC50 (nM): 7
--
compound: CCC(=O)N1CC[C@@H](Oc2cncc(-c3cc4c(cc3F)N(C)C(=O)CC4)c2)C1 [Example 133]
EC50 (nM): 10
--
compound: CCC1(NCc2cncc(-c3ccc4c(c3)CCC(=O)N4C)c2)COC1 [Example 206]
EC50 (nM): 10
--
compound: CC(N[S@+]([O-])C(C)(C)C)c1cncc(-c2ccc3c(c2)CCC(=O)N3C)c1 (single isomer, unassigned) [Example 57]
EC50 (nM): 26
--
compound: CN1C(=O)CCc2cc(-c3cncc(CNS(=O)(=O)c4cnn(C)c4)c3)ccc21 [Example 159]
EC50 (nM): 180
--
compound: CN1C(=O)CCc2cc(-c3cncc(CNC(=O)c4cnoc4C4CC4)c3)ccc21 [Example 107]
EC50 (nM): 2
--
compound: CCS(=O)(=O)N1CC[C@@H](Oc2cncc(-c3ccc4c(c3)CCC(=O)N4C)c2)C1 [Example 169]
EC50 (nM): 35

a = CCS(=O)(=O)NC(c1cncc(-c2ccc3c(c2)CCC(=O)N3C)c1)C(C)C (racemic) [Example 176]
b = CN1C(=O)CCc2cc(-c3cncc(CNC(=O)c4ccc(Cl)nn4)c3)ccc21 [Example 104]
c = CCS(=O)(=O)NCc1cncc(-c2ccc3c(c2)CCC(=O)N3C)c1C [Example 194]
INPUT: Rank by EC50 (largest to smallest). Please express your ranking as an ordered list of the labels.
OUTPUT: a, c, b
